Target chain: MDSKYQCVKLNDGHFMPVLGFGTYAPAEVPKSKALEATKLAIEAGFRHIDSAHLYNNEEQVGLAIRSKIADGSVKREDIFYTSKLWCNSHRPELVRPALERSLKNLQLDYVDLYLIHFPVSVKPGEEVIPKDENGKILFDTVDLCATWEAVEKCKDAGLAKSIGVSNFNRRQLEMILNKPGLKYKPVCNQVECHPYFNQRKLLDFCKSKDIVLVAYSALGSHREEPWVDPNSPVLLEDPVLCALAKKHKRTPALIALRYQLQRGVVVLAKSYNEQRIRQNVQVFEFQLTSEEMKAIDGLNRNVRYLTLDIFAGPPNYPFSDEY
pKi: −log10 of the molar value.
QUANTITY: pKi

smiles_representation=O=C(O)c1cc(Br)cc(-c2ccccc2)c1O reported=6.85
